assay: logP determination; conditions: logP neutral, neutral
metric: logP
Note: the reply should be a number with no unit written.

Item "CCCN(C)C=Nc1cc(C(F)(F)F)c(Oc2ccc(Cl)c(C(F)(F)F)c2)cc1C" : provide logP
6.15

Item "CCN(C)C=Nc1cc(C(F)(F)F)c(Oc2ccc(Cl)c(C(C)(C)C)c2)cc1C" : provide logP
6.68

Item "Cc1cc(Oc2ccc(Cl)c(C(C)(C)C)c2)c(C(F)(F)F)cc1N=CN(C)C" : provide logP
6.3

Item "CCN(C)C=Nc1cc(C(F)(F)F)c(Oc2cccc(C(C)(C)C)c2)cc1C" : provide logP
6.04

Item "CCN(C)C=Nc1cc(C(F)(F)F)c(-c2ccc(C(C)(C)C)cc2)cc1C" : provide logP
6.15

Item "CCN(C)C=Nc1cc(C(F)(F)F)c(Oc2cccc(C(C)C)c2)cc1C" : provide logP
5.74

Item "CCN(C)C=Nc1cc(C(F)(F)F)c(Oc2ccc(Cl)c(C(F)(F)F)c2)cc1C" : provide logP
5.77

---

assay: logP determination; settings: logP acid, acid
metric: logP
Note: the reply should be a number with no unit written.

Item CCN(C)C=Nc1cc(C(F)F)c(Oc2cccc(C(C)F)c2)cc1C (stereo not shown) [Compound 16] : provide logP
2.17

Item CCN(C)C=Nc1cc(C(F)F)c(Oc2ccccc2)cc1C [Compound 13] : provide logP
1.73

Item CCN(C)C=Nc1cc(C(F)(F)F)c(Oc2ccc(Cl)c(C(C)(C)C)c2)cc1C [Compound 3] : provide logP
3.26

Item CCN(C)C=Nc1cc(CF)c(Oc2ccc(Cl)c(C(C)(C)C)c2)cc1C [Compound 1] : provide logP
2.93

Item CCN(C)C=Nc1cc(C(F)F)c(Oc2ccc(Cl)c(C(C)(C)C)c2)cc1C [Compound 9] : provide logP
2.82

Item CCN(C)C=Nc1cc(C(F)F)c(Oc2cccc(C(C)O)c2)cc1C (stereo not shown) [Compound 15] : provide logP
1.65

Item CCN(C)C=Nc1cc(C(F)F)c(Oc2cccc(C(C)C)c2)cc1C [Compound 18] : provide logP
2.5

Item CCN(C)C=Nc1cc(CF)c(-c2ccc(C(C)(C)C)cc2)cc1C [Compound 2] : provide logP
2.67

Item Cc1cc(Oc2ccc(Cl)c(C(C)(C)C)c2)c(C(F)(F)F)cc1N=CN(C)C [Compound 8] : provide logP
3.13

Item CCN(C)C=Nc1cc(C(F)(F)F)c(Oc2cccc(C(C)C)c2)cc1C [Compound 4] : provide logP
2.65

Item CCN(C)C=Nc1cc(C(F)(F)F)c(-c2ccc(C(C)(C)C)cc2)cc1C [Compound 12] : provide logP
2.74

Item CCCN(C)C=Nc1cc(C(F)(F)F)c(Oc2ccc(Cl)c(C(F)(F)F)c2)cc1C [Compound 6] : provide logP
3.01

Item CCN(C)C=Nc1cc(C(F)F)c(Oc2ccc(Cl)c(C(C)C)c2)cc1C [Compound 17] : provide logP
2.97

Item CCN(C)C=Nc1cc(C(F)(F)F)c(Oc2cccc(C(C)(C)C)c2)cc1C [Compound 11] : provide logP
2.52

Item CCN(C)C=Nc1cc(C(F)F)c(Oc2ccc(Cl)c(Cl)c2)cc1C [Compound 10] : provide logP
2.31

Item CCN(C)C=Nc1cc(C(F)(F)F)c(Oc2ccc(Cl)c(C(F)(F)F)c2)cc1C [Compound 5] : provide logP
2.81
